# Test system: B. bronchiseptica ATCC 4617
# experiment description: Antibacterial activity: MIC/MBC, disc-diffusion
# Type: cell-based, Bordetella bronchiseptica
# measurement conditions: Bordetella bronchiseptica, ATCC4617; B. bronchiseptica ATCC 4617; read-out: MIC
result type: MIC

Data request: Return reported MIC; argument: `C[Si]1(C)OB(O)c2cc(F)c(SCCC(=O)OCCCCCC[n+]3ccccc3)c(F)c21`
Data returned: > 400 µg/mL

Data request: Need MIC, item C[Si]1(C)OB(O)c2ccc(SC3CC(=O)N(c4ccc(Br)c(C(F)(F)F)c4)C3=O)c(F)c21 (stereo not drawn)
Data returned: 200 µg/mL

Data request: # lookup: MIC of `C[Si]1(C)OB(O)c2cc(F)c(S(=O)(=O)Cl)c(F)c21`
Data returned: > 400 µg/mL

Data request: May I ask what MIC has been recorded for C[Si]1(C)OB(O)c2cc(F)c(SC3CC(=O)NC3=O)c(F)c21 (stereo not drawn) ?
Data returned: 12.5 µg/mL

Data request: Need MIC of `C[Si]1(C)OB(O)c2ccc(SCCC(=O)OCCCCCC[n+]3ccccc3)c(F)c21` , thanks.
Data returned: > 400 µg/mL

Data request: Reported MIC for `C[Si]1(C)OB(O)c2cc(F)c(S(=O)(=O)N3CCOCC3)c(F)c21` : what is it?
Data returned: > 400 µg/mL

Data request: Which value of MIC has been reported for `C[Si]1(C)OB(O)c2cc(F)c(SCCC(=O)Nc3ncccn3)c(F)c21` in the records?
Data returned: > 400 µg/mL

Data request: Field request: MIC | item: C[Si]1(C)OB(O)c2cc(F)c(SC3CC(=O)N(c4ccc(F)cc4)C3=O)c(F)c21 (stereo not drawn)
Data returned: 200 µg/mL

Data request: Recorded MIC of `C[Si]1(C)OB(O)c2cc(F)c(SCCC(=O)ON3C(=O)CCC3=O)c(F)c21` , please.
Data returned: > 400 µg/mL
